src = ChEMBL document CHEMBL4364353

target: Lysophosphatidic acid receptor 1 (Homo sapiens); test: Antagonist activity at human LPA1 expressed in CHO cells assessed as reduction in LPA-induced calcium influx incubated for 20 mins
Sequence (Q92633 whole entry): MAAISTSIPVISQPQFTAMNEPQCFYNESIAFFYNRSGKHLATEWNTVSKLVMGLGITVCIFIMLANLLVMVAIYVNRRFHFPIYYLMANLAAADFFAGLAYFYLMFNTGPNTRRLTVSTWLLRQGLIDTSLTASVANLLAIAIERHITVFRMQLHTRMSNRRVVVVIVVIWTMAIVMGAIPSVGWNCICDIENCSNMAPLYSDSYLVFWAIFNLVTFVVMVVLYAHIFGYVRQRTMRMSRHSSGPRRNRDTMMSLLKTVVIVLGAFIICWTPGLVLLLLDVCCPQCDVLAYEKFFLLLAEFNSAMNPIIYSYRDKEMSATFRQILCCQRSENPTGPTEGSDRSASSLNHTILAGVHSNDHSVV
Readout Type: IC50 (µM)
Give a bare numeral; the unit µM is implied.

Q: Fill in reported IC50 for this entry: Cc1noc(-c2ccc(O[C@H]3CCC[C@H](C(=O)O)C3)cc2)c1CNC(=O)OCc1ccc(Cl)cc1
Result: 0.227
